Tested on: Vasopressin V1
method.description: Vasopressin V1 Antagonist Activity in Conscious Rats (vasopressin vasopressor response)
Assay type: in vivo, rat
conditions.used: 30 mg/kg p.o.
Experimental: Vasopressin V1 Antagonist Activity in Conscious Rats Conscious rats are restrained in a supine position with elastic tape. The area at the base of the tail is locally anesthetized by subcutaneous infiltration with 2% procaine (0.2 ml). […] The animals are placed in plastic restraining cages in an upright position. The cannula is attached to a Statham P23Db pressure transducer and pulsatile blood pressure is recorded. […]
quantity: Time (of max. % inhibition) (min)
Use min as the unit, but write only the number.

The following compounds have reported results that may help.
For the compound Cc1ccccc1C(=O)Nc1ccc(C(=O)N2Cc3cccn3Cc3ccccc32)c(Cl)c1 [Example 470] , what Time (of max. % inhibition) is on record?
180

Now consider Cc1c(F)cccc1C(=O)Nc1ccc(C(=O)N2Cc3cccn3Cc3ccccc32)c(Cl)c1 [Example 481] .
80

Consider next the compound O=C(Nc1ccc(C(=O)N2Cc3cccn3Cc3ccccc32)cc1)c1sccc1Cl [Example 476] in the same way.
180

What do we get for O=C(Nc1ccc(C(=O)N2Cc3cccn3Cc3ccccc32)cc1)C(O)c1ccccc1 (racemic) [Example 588] ?
120

# repeat for COc1cc(C(=O)N2Cc3cccn3Cc3ccccc32)ccc1NC(=O)c1ccccc1C [Example 477]
30

// next record Cc1ccccc1NC(=O)c1ccc(C(=O)N2Cc3cccn3Cc3ccccc32)cc1 [Example 484]
180

Others:
Recorded Time (of max. % inhibition) of O=C(Nc1ccc(C(=O)N2Cc3ccc(CO)n3Cc3ccccc32)cc1)c1ccc(Cl)cc1Cl [Example 581] , please.
30

Also COc1cc(C(=O)N2Cc3cccn3Cc3ccccc32)ccc1NC(=O)c1cccc(F)c1C [Example 479] , if possible.
90
